Just for reference, PubChem BioAssay (EPA / NIEHS) is where these values come from.

Read-out: Plasminogen activator inhibitor-1 (PAI1), SERPINE1 (gene 5054)
Experiment: BSK_hDFCGF_PAI1: BioMAP Diversity Plus: hDFCGF Assay for Plasminogen activator inhibitor-1 (PAI1) Biomarker Activity (AID 2283066)
Settings: primary human foreskin fibroblasts; actives raise or lower the signal
The source made the active and inactive calls. Rule for the calls: active = hit-call score of the fitted dose curve at least 0.9, where 1 is the maximum; inactive = score below 0.9.
Response enum: active, inactive

// param item: CCCCCCCCCC/C=C/C1CC(=O)OC1=O (stereo not given) ; yields the recorded call
inactive

// param item: CN(C)c1ccc(C(c2ccccc2)c2ccc(N(C)C)cc2)cc1 ; yields the recorded call
inactive

// param item: COC(=O)/C=C\C(=O)OC ; yields the recorded call
inactive

// param item: CN(C)Cc1cc(C(C)(C)C)c(O)c(C(C)(C)C)c1 ; yields the recorded call
inactive

// param item: COc1cc(CNC(=O)CCCC/C=C/C(C)C)ccc1O ; yields the recorded call
inactive

----------
Experiment: TOX21_p53_BLA_p4_viability: Viability Assessment in the Tox21 HCT-116 p53 Agonism Beta-lactamase Assay, Phase 4 (AID 2283597);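 note: hits lower the luminescence signal meaning cytotoxicity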
Inconclusive results are not listed. Active and inactive are the calls of the source. The calls were made as follows: active = hit-call score of the fitted dose curve at least 0.9, where 1 is the maximum; inconclusive = response in the unintended direction; inactive = score below 0.9.
measurementType: outcome

Study these solved cases before continuing.
Brc1ccc(Oc2ccc(Br)cc2)cc1: inactive
CNc1ccc(O)cc1: inactive
Oc1ccc(Cc2ccccc2)cc1: inactive
CCCCCCCCCCCCCCCCC(C(=O)O)C(O)(CC(=O)O)C(=O)O (stereo not drawn): inactive
COc1cccc(OC)c1C(=O)O: inactive

Param item = C[N+]1(CC2COC(c3ccccc3)(C3CCCCC3)O2)CCCCC1 (stereo not drawn) ; retrieve measured outcome.
inactive

Param item = Cc1c(O)c(=O)ccn1C ; retrieve measured outcome.
inactive

Param item = CC(C)OC(=O)CCCCC(=O)OC(C)C ; retrieve measured outcome.
inactive

Param item = OC1OC[C@@H](O)[C@H](O)[C@@H]1O (stereo partly drawn) ; retrieve measured outcome.
inactive

----------
Molecular target: Hypoxia-inducible factor 1-alpha (Homo sapiens) (UniProt Q16665)
Sequence (Q16665 whole entry, looked up): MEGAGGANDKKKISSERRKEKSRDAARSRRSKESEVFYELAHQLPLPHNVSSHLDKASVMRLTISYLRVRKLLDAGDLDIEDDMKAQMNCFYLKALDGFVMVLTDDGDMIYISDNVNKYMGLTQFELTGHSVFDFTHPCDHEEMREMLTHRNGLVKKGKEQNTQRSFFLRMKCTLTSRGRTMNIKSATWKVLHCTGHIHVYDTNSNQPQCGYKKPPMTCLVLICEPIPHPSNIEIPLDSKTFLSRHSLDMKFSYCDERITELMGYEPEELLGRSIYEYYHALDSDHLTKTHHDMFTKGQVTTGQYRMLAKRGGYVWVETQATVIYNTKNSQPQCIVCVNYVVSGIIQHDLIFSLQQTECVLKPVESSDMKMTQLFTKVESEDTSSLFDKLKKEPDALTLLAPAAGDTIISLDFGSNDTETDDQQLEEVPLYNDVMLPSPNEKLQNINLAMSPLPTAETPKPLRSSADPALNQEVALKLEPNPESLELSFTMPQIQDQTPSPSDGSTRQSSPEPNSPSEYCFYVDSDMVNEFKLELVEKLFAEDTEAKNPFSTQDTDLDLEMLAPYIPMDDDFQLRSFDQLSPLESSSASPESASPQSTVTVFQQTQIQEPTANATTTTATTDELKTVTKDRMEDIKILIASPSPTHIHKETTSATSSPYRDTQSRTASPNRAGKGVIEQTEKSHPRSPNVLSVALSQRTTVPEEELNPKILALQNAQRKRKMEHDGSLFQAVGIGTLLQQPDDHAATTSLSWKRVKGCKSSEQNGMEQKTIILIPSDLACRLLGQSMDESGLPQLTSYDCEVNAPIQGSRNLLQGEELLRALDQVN
Experiment: ATG_HIF1a_CIS: Attagene CIS-FACTORIAL HepG2 Assay for human Hypoxia Inducible Factor 1 (HIF1A) (AID 2282951)
Conditions: HepG2 Attagene cis-factorial HIF1a reporter transcription; actives raise or lower the signal
Calls of active or inactive are those of the source. The calls were made as follows: active = hit-call score of the fitted dose curve at least 0.9, where 1 is the maximum; inactive = score below 0.9.
Response enum: yes (1) = active, no (0) = inactive

Take a look at these entries with their results.
CC(C)CC(=O)CC(C)CC(C)C (stereo not drawn): no (0)
CCCCCCCCCCCCCCCCCC[N+](C)(C)C: no (0)
CCO[Si](CCCN)(OCC)OCC: no (0)
CC1=NN(c2cc(Cl)c(S(=O)(=O)O)cc2Cl)C(=O)C1N=Nc1ccc(S(=O)(=O)O)cc1 (stereo not drawn): no (0)
C1=CCC=C1: no (0)
CCCCNC(N)=O: no (0)
O=C1NC(=O)[C@@H]2CC=CC[C@H]12: no (0)
CN(C)Cc1cc(C(C)(C)C)c(O)c(C(C)(C)C)c1: no (0)

// param item: CCCCCCC(O)CCCCCCCCCCC(=O)OC (stereo not drawn) ; yields the recorded call
no (0)

// param item: Cc1cc(C)c(S(=O)(=O)O)cc1N=Nc1cc(S(=O)(=O)O)c2ccccc2c1O ; yields the recorded call
no (0)

// param item: CCCCCCCC#N ; yields the recorded call
no (0)

// param item: CC(=O)c1nccs1 ; yields the recorded call
no (0)

// param item: Cc1ccccc1S(N)(=O)=O ; yields the recorded call
no (0)
